Measured glycan array binding signal (z-score) values are reported for all entries that follow.
- tgt: Gal(a1-3)Gal(b1-3)[Fuc(a1-4)]GlcNAc(b1-2)Man(a1-3)[Gal(a1-3)Gal(b1-3)[Fuc(a1-4)]GlcNAc(b1-2)Man(a1-6)]Man(b1-4)GlcNAc(b1-4)GlcNAc
- measurement-notes: glycan array binding signal (z-score within array); higher = stronger binding
- test-context: glycan notation: IUPAC condensed, linker removed
Only a selection was taken, and the strongest signals are over-represented in it overall.

- binder: "Mg1lysM (Mycosphaerella graminicola) (protein) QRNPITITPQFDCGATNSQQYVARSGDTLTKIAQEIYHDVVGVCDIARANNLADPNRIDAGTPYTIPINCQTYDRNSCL"
  glycan array binding signal (z-score): -0.048
- binder: "Epa3 (Candida glabrata), Q6VBI8_CANGB (protein) MGSSHHHHHHSSGLVPRGSHMNDLGFSLFEKRELSSQNPFGYPIGCSPQDVAIIPGLTMELYSYPIVSGTPPNCYDASYVDPEYPRTGYLKRKMVGKSTGVTGNLNYKYSVEKACMVKYGNLPAGYNYNEPLTVSNFTMILYGYFKAQTTGLHTFFVNADDLLYINFGAGNAFDCCKREDSKTKLGEYVAYDIWHVDSSKNKVSLFLEKDLYYPIRMFFNNIGKDSSLDLSFSVNGATDQISDFSGYLYSVPDQPDTCPAHIGYDTTCR"
  glycan array binding signal (z-score): -0.23
- binder: "Loc1 (Escherichia coli) (protein) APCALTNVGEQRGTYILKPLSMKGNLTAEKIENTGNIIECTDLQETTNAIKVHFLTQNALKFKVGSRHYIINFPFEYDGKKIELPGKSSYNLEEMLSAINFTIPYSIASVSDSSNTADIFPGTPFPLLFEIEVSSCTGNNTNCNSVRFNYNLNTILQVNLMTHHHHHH"
  glycan array binding signal (z-score): -0.81
- binder: "SLP (Clostridium difficile), Q183M8 (protein) MATTGTQGYTVVKNDWKKAVKQLQDGLKDNSIGKITVSFNDGVVGEVAPKSANKKADRDAAAEKLYNLVNTQLDKLGDGDYVDFSVDYNLENKIITNQADAEAIVTKLNSLNEKTLIDIATKDTFGMVSKTQDSEGKNVAATKALKVKDVATFGLKSGGSEDTGYVVEMKAGAVEDKYGKVGDSTAGIAINLPSTGLEYAGKGTTIDFNKTLKVDVTGGSTPSAVAVSGFVTKDDTDLAKSGTINVRVINAKEESIDIDASSYTSAENLAKRYVFDPDEISEAYKAIVALQNDGIESNLVQLVNGKYQVIFYPEGKRLETKSLEHHHHHH"
  glycan array binding signal (z-score): 12.1
